Assay: Fluorescence quantum yield vs Prodan in DMSO as reference
Type: physicochemical
Settings: THF; excitation 334 nm, 10^-5 M
So I've got a bunch of molecules here, and I need their QY (fluorescence quantum yield vs Prodan in DMSO (91%)) values.
Record the value in %, omitting the unit from your answer.

Ask: Reported QY (fluorescence quantum yield vs Prodan in DMSO (91%)) for CCC(=O)c1ccc2cc(N(C)C)ccc2c1 [Prodan, reference compound] : what is it?
Reply: 78

Ask: Reported QY (fluorescence quantum yield vs Prodan in DMSO (91%)) for CC(=O)c1c2c(cc3cc(N(C)C)ccc13)CCC2 [Compound 11] : what is it?
Reply: 34

Ask: Reported QY (fluorescence quantum yield vs Prodan in DMSO (91%)) for CC(=O)c1c2c(cc3ccc(N(C)C)cc13)CCC2 [Compound 10] : what is it?
Reply: 75

Ask: Reported QY (fluorescence quantum yield vs Prodan in DMSO (91%)) for CC(=O)c1c2c(cc3c(N(C)C)cccc13)CCC2 [Compound 12] : what is it?
Reply: 39

###

So I've got a bunch of compounds here, and I need their emission maximum values.
Experiment: Fluorescence emission spectra (emission maxima, Stokes and bathochromic shifts)
Format: physicochemical
Details: in dichloromethane (DCM)
Record the value in nm, omitting the unit from your answer.

Ask: Reported emission maximum for CC(=O)c1c2c(cc3c(N(C)C)cccc13)CC(CO)(CO)C2 [7a] : what is it?
Reply: 567

Ask: Reported emission maximum for CC(=O)c1c2c(cc3c(Cl)cccc13)CCC2 [Compound 6c] : what is it?
Reply: 564

Ask: Reported emission maximum for CC(=O)c1c2c(cc3ccccc13)CCC2 [Compound 6a] : what is it?
Reply: 566

Ask: Reported emission maximum for CC(=O)c1c2c(cc3cc(Cl)ccc13)CCC2 [Compound 6d] : what is it?
Reply: 581

Ask: Reported emission maximum for CC(=O)c1c2c(cc3ccc(Cl)cc13)CCC2 [Compound 6b] : what is it?
Reply: 527

###

So I've got a bunch of molecules here, and I need their QY (fluorescence quantum yield vs Prodan in DMSO (91%)) values.
Assay: Fluorescence quantum yield vs Prodan in DMSO as reference
Type: physicochemical
Conditions: DMSO; excitation 334 nm, 10^-5 M
Record the value in %, omitting the unit from your answer.

Ask: Reported QY (fluorescence quantum yield vs Prodan in DMSO (91%)) for CC(=O)c1c2c(cc3cc(N(C)C)ccc13)CCC2 [Compound 11] : what is it?
Reply: 37

Ask: Reported QY (fluorescence quantum yield vs Prodan in DMSO (91%)) for CC(=O)c1c2c(cc3c(N(C)C)cccc13)CCC2 [Compound 12] : what is it?
Reply: 48

Ask: Reported QY (fluorescence quantum yield vs Prodan in DMSO (91%)) for CCC(=O)c1ccc2cc(N(C)C)ccc2c1 [Prodan, reference compound] : what is it?
Reply: 91

Ask: Reported QY (fluorescence quantum yield vs Prodan in DMSO (91%)) for CC(=O)c1c2c(cc3ccc(N(C)C)cc13)CCC2 [Compound 10] : what is it?
Reply: 85

###

Experiment: Absorption spectra (absorption maxima) of dyes in organic solvents
Assay type: physicochemical
Settings: Acetonitrile
READOUT_KIND: λabs (maximum absorption) (nm)
Record the value in nm, omitting the unit from your answer.

Ask: Reported λabs (maximum absorption) for "CC(=O)c1c2c(cc3ccc(N(C)C)cc13)CCC2" : what is it?
Reply: 375

Ask: Reported λabs (maximum absorption) for "CC(=O)c1c2c(cc3c(N(C)C)cccc13)CCC2" : what is it?
Reply: 316

Ask: Reported λabs (maximum absorption) for "CC(=O)c1c2c(cc3cc(N(C)C)ccc13)CCC2" : what is it?
Reply: 370

Ask: Reported λabs (maximum absorption) for CCC(=O)c1ccc2cc(N(C)C)ccc2c1 [Prodan, reference compound] : what is it?
Reply: 350
